Target: MM1309 (Methanosarcina mazei, UniProt Q8PXB3)
Sequence (Q8PXB3 1-350): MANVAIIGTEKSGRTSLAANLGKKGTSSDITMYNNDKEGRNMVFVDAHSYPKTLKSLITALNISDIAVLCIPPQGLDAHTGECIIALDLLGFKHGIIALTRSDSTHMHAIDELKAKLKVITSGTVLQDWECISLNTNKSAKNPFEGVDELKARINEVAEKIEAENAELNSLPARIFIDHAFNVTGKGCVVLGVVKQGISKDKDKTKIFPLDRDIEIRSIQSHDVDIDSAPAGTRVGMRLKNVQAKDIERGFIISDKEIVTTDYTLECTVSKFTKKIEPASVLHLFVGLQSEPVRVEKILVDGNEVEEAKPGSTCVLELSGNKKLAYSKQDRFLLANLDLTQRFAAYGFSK
EXPERIMENTAL_READOUT: Kd (µM)

In [3]: df
Out[3]:
                                  structure  observed
0  Nc1nc2c(ncn2[C@@H]2O[C@H](COP(=O)(O)OP(=O)(O)NP(=O)(O)O)[C@@H](O)[C@H]2O)c(=O)[nH]1       222

A. Nc1nc2c(ncn2[C@@H]2O[C@H](COP(=O)(O)OP(=O)(O)OP(=O)(O)O)[C@@H](O)[C@H]2O)c(=O)[nH]1
B. Nc1nc2c(ncn2[C@@H]2O[C@H](COP(=O)(O)OP(=O)(O)O)[C@@H](O)[C@H]2O)c(=O)[nH]1
Req: // max by Kd over [ A , B ] Provide the label of your selected option as the answer.
Resp: B
(B: 26.2 µM, A: 0.43 µM)

Ref: paper PMC4329189
